Molecular target: T1, recombinant human TL1A (human, UniProt O95150 71-251)
T1 construct: homotrimer; biotinylated for SPR capture; the ELISA paragraphs say only 'recombinant TL1A'; also called TNFSF15
T1 chain: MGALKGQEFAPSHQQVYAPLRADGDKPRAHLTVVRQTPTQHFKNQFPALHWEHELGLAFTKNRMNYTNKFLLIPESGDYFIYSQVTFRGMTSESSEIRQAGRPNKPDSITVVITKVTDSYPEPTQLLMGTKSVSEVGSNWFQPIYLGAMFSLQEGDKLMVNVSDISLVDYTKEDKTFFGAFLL
Assay: competition ELISA vs bio-TL1A-0002
readoutKind: Bioactivity relative to TL1A-0002 (fold)
# output: bare number, implied unit fold

binder TL1A-0194 (antibody, IgG1, V domains shown, IgG1/kappa variant of TL1A-0002) VH: QVQLVQSGAEVKKPGASVKVSCKASGYDFTYYGISWVRQAPGQGLEWMGWISTYNGNTHYARMLQGRVTMTTDTSTRTAYMELRSLRSDDTAVYYCAREQYYGSGAFRGGMDVWGQGTTVTVSS VL: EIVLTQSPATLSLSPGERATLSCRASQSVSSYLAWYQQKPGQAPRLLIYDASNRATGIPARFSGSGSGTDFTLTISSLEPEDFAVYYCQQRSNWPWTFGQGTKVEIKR , Bioactivity relative to TL1A-0002 observed: 1.8

binder TL1A-0095 (antibody, IgG1, V domains shown, IgG1/kappa variant of TL1A-0002) VH: QVQLVQSGAEVKKPGASVKVSCKASGYDFTYYGISWVRQAPGQGLEWMGWISTYNGNTHYARMLQGRVTMTTDTSTRTAYMELRSLRSDDTAVYYCARETYYGSGAYRGGMDVWGQGTTVTVSS VL: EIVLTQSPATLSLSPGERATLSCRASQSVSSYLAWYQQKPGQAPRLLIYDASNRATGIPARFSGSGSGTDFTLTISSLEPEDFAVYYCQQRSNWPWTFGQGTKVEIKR , Bioactivity relative to TL1A-0002 observed: 2

binder TL1A-0022 (antibody, IgG1, V domains shown, IgG1/kappa variant of TL1A-0002) VH: QVQLVQSGAEVKKPGASVKVSCKASGYDFTYYGISWVRQAPGQGLEWMGWISTYNGNEHYARMLQGRVTMTTDTSTRTAYMELRSLRSDDTAVYYCARENYYGSGAYRGGMDVWGQGTTVTVSS VL: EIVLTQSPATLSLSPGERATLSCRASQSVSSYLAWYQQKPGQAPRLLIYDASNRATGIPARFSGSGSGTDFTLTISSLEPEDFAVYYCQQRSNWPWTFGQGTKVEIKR , Bioactivity relative to TL1A-0002 observed: 1.5

binder TL1A-0089 (antibody, IgG1, V domains shown, IgG1/kappa variant of TL1A-0002) VH: QVQLVQSGAEVKKPGASVKVSCKASGYDFTYYGISWVRQAPGQGLEWMGWISTYNTGTHYAQKLQGRVTMTTDTSTRTAYMELRSLRSDDTAVYYCARENYYGSGAYRGGMDVWGQGTTVTVSS VL: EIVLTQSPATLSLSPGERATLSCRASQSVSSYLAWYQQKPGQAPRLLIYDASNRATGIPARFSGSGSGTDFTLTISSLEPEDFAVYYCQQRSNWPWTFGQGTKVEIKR , Bioactivity relative to TL1A-0002 observed: 1.2

binder TL1A-0026 (antibody, IgG1, V domains shown, IgG1/kappa variant of TL1A-0002) VH: QVQLVQSGAEVKKPGASVKVSCKASGYDFTYYGISWVRQAPGQGLEWMGWISTYNGNEHYADSLQGRVTMTTDTSTRTAYMELRSLRSDDTAVYYCARENYYGSGAYRGGMDVWGQGTTVTVSS VL: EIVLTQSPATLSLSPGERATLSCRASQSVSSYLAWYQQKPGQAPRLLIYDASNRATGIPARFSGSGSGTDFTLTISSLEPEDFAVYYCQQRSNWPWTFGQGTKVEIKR , Bioactivity relative to TL1A-0002 observed: 2
